B1: LINE1-mini (parent)
chain: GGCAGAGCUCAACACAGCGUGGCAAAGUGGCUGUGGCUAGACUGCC

- Variants of: B1
- EXPERIMENTAL_PROTOCOL: self-cleavage, relative activity (ratio to wild type); higher = more cleavage; in vitro, sequencing; the parent is a self-cleaving ribozyme
MEASUREMENT_KIND: self-cleavage
Could you respond with only the numeric value?

// returns reported self-cleavage for input GGCAGAGUUCACCACAGCGUGGCAAAGUGGCUGUGGCUAGACUGCC 0.04

How about GGCAGAGCUCAACACAGCGGGGCAAAUUGGCUGUGGCUAGACUGCC ? 0.25

How about GGCAGAGCUCAACAUACCGUGGCAAAGUGGCUGUGGCUAGACUGCC ? 0.19

How about GGCAUAGCUCAACACAGCGUGGCAAAGUGGCUGUGGCUACACUGCC ? 0.05

How about GGCAGAACUCAACACAGCGUGGCAAAGUGGCUGAGGCUAGACUGCC ? 0.1

How about GGCUGAGCUCAACACAGCGUGGCAAAGUGGCUGUGGCUGGACUGCC ? 0.07

How about GCCAGAGCUCAACACAGCGUGGCAAAGUGGCUGUGGCUAGACUGGC ? 0.61

How about GGCAGAGCUCAACCCAGCGUGGCAAAGUGGCUGUGGCUUGACUGCC ? 0.07

How about GGCAGAGCUCAACACAGCGUGGCAAAGUGGCUGUGCCUAGACUGCU ? 0.05

How about GGCAGGGCUCAACACAGCGUGGCAAACUGGCUGUGGCUAGACUGCC ? 0.07

How about GGCAGAGCUCAACACAGCGUGGCAAAGUGGCGGUGGCUAGAAUGCC ? 0.04

How about GGCAGAGCUCAAUACAGCGUGGCAAAGUGGCUGUUGCUAGACUGCC ? 0.18

How about GGCUGAGCUCAACACAGCGUGGCAAAGUGGCUGUGGGUAGACUGCC ? 0.08

How about AGCAGAGCUCCACACAGCGUGGCAAAGUGGCUGUGGCUAGACUGCC ? 0.04

How about GGCAGAGCUCAACACAGCGUGGCAAAGUGGCUGUGGCCAGGCUGCC ? 0.11

How about GGCAGAGCUCAACACAGCGUGGCUAAGUGCCUGUGGCUAGACUGCC ? 0.62

How about GGCAGAGCUCAACACAGCGUGGCAAAGCGGCGGUGGCUAGACUGCC ? 0.3

How about GGCAGAGCUCAAAACAGCGUGGCAAGGUGGCUGUGGCUAGACUGCC ? 0.12

How about GGCACAGCUCAACACAGCGUGGCAAAGUGGCUGGGGCUAGACUGCC ? 0.06

How about GGCAGAGCUCAACACAGCGUGGCAAAGCGGCUGUCGCUAGACUGCC ? 0.13

How about GUCAGAGCUCAACACAGCGUGGCAACGUGGCUGUGGCUAGACUGCC ? 0.09

How about GGCAGAGCUCAGCACAGCGUGGCAAAUUGGCUGUGGCUAGACUGCC ? 0.04

How about GGCAGAGCUCAAAACAGCGUGGCAACGUGGCUGUGGCUAGACUGCC ? 0.18

How about GGCAGAGCUCAACACAGCGUGGCAAAGUGGCUUUGGCUAGAUUGCC ? 0.09

How about GGCAGAGCUCAACACAGCGUGGCAAAGUGGUUGUGGAUAGACUGCC ? 0.09

How about GGCAGAGCUCAACAUAGCGUGGCAAAGUGGCUGUGGCUAGACUGCA ? 0.92

How about GGCAGAGCUCAACACAGCGUGGCAAAGUGGCUGUGCCUACACUGCC ? 0.08

How about GGCAGAGCUCAACACAGCGUGGCAAAGUGGCUUUGGCUAGACUCCC ? 0.06

How about GGCAGAGCUCAACACAGCGUGCCAAAGUGGCUGUUGCUAGACUGCC ? 0.15

How about GGCGGAGCUCAACACAGCGUCGCAAAGUGGCUGUGGCUAGACUGCC ? 0.24

How about GGCAGAGCUCCACACAGCGGGGCAAAGUGGCUGUGGCUAGACUGCC ? 0.04

How about GGCAGAGCUCAACACAGCAUAGCAAAGUGGCUGUGGCUAGACUGCC ? 2.83

How about GGCAUAGCUCAACACAGCGUGGCAAAGUGGCUCUGGCUAGACUGCC ? 0.06

How about GGCAGAGCUCAACACAGCGAGGCAAAGUGGCUGUGGCUAGUCUGCC ? 0.35

How about GGCAGAGCUAAACACAGCGUGGCAAAGGGGCUGUGGCUAGACUGCC ? 0.06

How about GGCCGUGCUCAACACAGCGUGGCAAAGUGGCUGUGGCUAGACUGCC ? 0.11

How about GGCAGAGCUCAACACAGCGUGGCAAAGUGGCUGUCGCUAGACUGUC ? 0.08

How about GGCAGGGCUCAACACAGCGUGGCAAAGUCGCUGUGGCUAGACUGCC ? 0.07

How about GGCAGAGCUCAACACAGCGUGGCAAAGUGGUUGUGGCUAGACUGGC ? 0.1

How about GGCGGUGCUCAACACAGCGUGGCAAAGUGGCUGUGGCUAGACUGCC ? 0.27

How about GGCAGAGCUCAACACAGCGUGGCAUAGUGGCUGUGGCUAGAGUGCC ? 0.06

How about GGCAAAGCUCAACACAGCGUGGCAAAGUGGCUGUGACUAGACUGCC ? 0.28

How about GGCAGAGCUCAACACAGCGUUGCAAAGUGGCUGUGGCUACACUGCC ? 0.11

How about GGCAGAGCUCAACACAGCGUGGCAAAGUGGCACUGGCUAGACUGCC ? 0.08

How about GGCAGAGCUCAACACAGCGUGGCAAAGAGGCUGUGGCUAGAUUGCC ? 0.22

How about GGCAGAGCUCAACACAGCGUGGCAACGUGGCUGUGGCUAGACUGCA ? 0.83

How about GGCAGAGCUCAACACAGCGUGGCAAAGUGGCUGUGGCUAGAGAGCC ? 0.06

How about GGCAGAGCUCAACACAGCGUGGCAAAGUGGCUGUGGGUAGACUGCC ? 0.05

How about GGCAGAGCUCAACACAGCGUGGCAAAGUCGCUGUGGCUCGACUGCC ? 0.06

How about GGCAGAGCUCAACACAGCGUGGCAAAGUGGCUGGGCCUAGACUGCC ? 0.05

How about AGCAGAGCUCAACACAGCGGGGCAAAGUGGCUGUGGCUAGACUGCC ? 0.58

How about GGCAGAGCUCAACACAGCGUGGCAAAGUGGCUGUGGAUAUACUGCC ? 0.2

How about GGCAGAGCUCAACACAGCGUGGGAAAGUGCCUGUGGCUAGACUGCC ? 2.06

How about GGCAGAGCGCAACACAGCGUGGCAAAGUGGCUGUGGCUAGACUACC ? 0.12

How about GGCAGUGCUAAACACAGCGUGGCAAAGUGGCUGUGGCUAGACUGCC ? 0.07

How about GGCAGGGCUCAACACAGCGUGGCAAAGUGGCCGUGGCUAGACUGCC ? 0.07

How about GGCAGGGCUCAAUACAGCGUGGCAAAGUGGCUGUGGCUAGACUGCC ? 0.15

How about GGCAGAGCUCAGCACAGCGUGGCAAAGUGGCUGUGGCUGGACUGCC ? 0.01

How about GGCAGAGCUCAACACAGCGUGGCAAAGUGGCUGUGGCUCCACUGCC ? 0.07

How about GGCAGGGCUCAACACAGCGUGACAAAGUGGCUGUGGCUAGACUGCC ? 0.11

How about GGCAGAGCUCAACACAGCGCGGCAAAGUGGGUGUGGCUAGACUGCC ? 0.07

How about CGCAGAGCUCAACGCAGCGUGGCAAAGUGGCUGUGGCUAGACUGCC ? 0.08

How about GGCAGAUCUCAACACAGCGUGGCAAAGUGGCUAUGGCUAGACUGCC ? 0.13

How about GGCAGAGCUUAACACAGCGUGGCAAAGUUGCUGUGGCUAGACUGCC ? 0.39

How about GGCCGAGCUCAACACAGCAUGGCAAAGUGGCUGUGGCUAGACUGCC ? 0.28

How about GGCAGAGCUCAACACAGUGUGGCAAAUUGGCUGUGGCUAGACUGCC ? 1.63

How about GGCAGAGCUAAACAGAGCGUGGCAAAGUGGCUGUGGCUAGACUGCC ? 0.04

How about GGCAGAGCUCAACACAGCGUGGCAAAGUGGCUGUGGCAAGACUGGC ? 0.26

How about GGCAGAGCUCAACAGAGCGUGGCAAAGUGGCUGUGGCUGGACUGCC ? 0.03

How about GGCAGAGCUCAACACAGCGUCGCAAAGUGGCUGUGGGUAGACUGCC ? 0.05

How about GGCAGAGCUCAACACAGCGUGGCAAAGUGGCUGUGUCUAGACUGGC ? 0.12

How about GGCAGAGCUCAACACAGCGUGGCAAAGUGUCUGUGGCUAGACUGAC ? 0.49

How about CGCAGAGCUCAACACAGCGUGGCAGAGUGGCUGUGGCUAGACUGCC ? 0.01

How about GGCAGAGCUCUACACAGCCUGGCAAAGUGGCUGUGGCUAGACUGCC ? 0.1

How about GGCAGAGCUCAACACAGCGUGGCAAAAUGGCUGUGGCUAGCCUGCC ? 0.04

How about GGCAGAGCUCAACUCAGCGUGGCAAAGUCGCUGUGGCUAGACUGCC ? 0.41

How about GGCAGAGCUCAACACAGCGUGGCAUAGUGGCUGUGGGUAGACUGCC ? 0.02

How about GGCAGACCUCAACACAGCGUGGCAAAGUGGCUGUGGCUAGACUGCA ? 0.18

How about GGCAGAGCUCAACACAGCGUGGCAAAGUGGCUCUGGCUAGACUGCA ? 0.03

How about GGCAGAGCUCAACACAGCGUGGCAAAGGGGCUAUGGCUAGACUGCC ? 0.11

How about GGCAGAGCUCAAGACAGCGUGGCAAAGUGGCUGUGGCUAGACCGCC ? 0.02

How about GGCAGAGCUCAACACAGCGUGGCAAAGUGGCUGUAGCAAGACUGCC ? 0.1

How about GGCCGAGCUCAACACGGCGUGGCAAAGUGGCUGUGGCUAGACUGCC ? 0.09

How about GGCAGGGCUCAACACAGCGUGGCAAAGGGGCUGUGGCUAGACUGCC ? 0.09

How about GGCCGAGCUCAACACUGCGUGGCAAAGUGGCUGUGGCUAGACUGCC ? 0.05

How about GGCAGCGCUGAACACAGCGUGGCAAAGUGGCUGUGGCUAGACUGCC ? 0.05

How about GGCAGAGCUCAACACAGCGCGGCAAAGUGGCUGUGGCUAGACUGUC ? 1.12

How about GGCAGAGCUGAACACAGCGUGGCAAAGUGGCUGUGGAUAGACUGCC ? 0.01

How about CGCAGAGCUCGACACAGCGUGGCAAAGUGGCUGUGGCUAGACUGCC ? 0.01

How about GGCAGAGCUCAACACAGCGUGGCUAAGUGGAUGUGGCUAGACUGCC ? 0.07

How about GGCAGAGCUCAACACAACGUGGCAAAGUGCCUGUGGCUAGACUGCC ? 0.83
